meta.source: patent US20080032921A1

# target of assay: HLA-DR DRB1*0101 (human)
# protocol description: competition with 125I-labelled reference peptide on purified HLA-DR
pIC50: −log10 of the molar value.
Here the recorded pIC50 is given for each entry.

binder: SLMLQIGNMISIWVSHS (modifications not checked) [Flu.NA.21 peptide …]
pIC50: 7.44
--
binder: YIQMCTELKLSDYEG (modifications not checked) [Flu.NP.43 peptide …]
pIC50: 6.49
--
binder: WAVYSKDNSIRIGSK (modifications not checked) [Flu.NA.77 peptide …]
pIC50: 5.27
--
binder: RTFFLTQGALLNDKHS (modifications not checked) [Flu.NA.110 peptide …]
pIC50: 7.80
--
binder: IGNMISIWVSHSIHTG (modifications not checked) [Flu.NA.26 peptide …]
pIC50: 5.98
--
binder: VAVLKYNGIITDTIKSW (modifications not checked) [Flu.NA.183 peptide …]
pIC50: 5.47
--
binder: NLEYQIGYICSGVFG (modifications not checked) [Flu.NA.289 peptide …]
pIC50: 5.95
--
binder: NGTVKDRSPHRTLMS (modifications not checked) [Flu.NA.126 peptide …]
pIC50: 6.24
